Assay: anti-Giardia activity of synthetic compounds – Compounds Australia Scaffold Library subset, 24/48 h, primary screen (AID 1794835);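 as to inhibition: 0% = parasite counts in DMSO vehicle wells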
Details: Giardia lamblia BRIS/91/HEPU/1279 trophozoite counts, imaging, at 10 µM
The whole screen tested about 2,500 compounds, of which about 45 (2%) were called active. Rule as the data show it: active = inhibition mostly above about 45% (no sharp cut-off); inactive = mostly below about 37%. The list comes from a sample in which actives are over-represented; it also holds close analogues and randomly drawn compounds.
A correct response names exactly one class from yes (1) (active), no (0) (inactive)

Example results:
# molecule, assignedLabel
rows = [
    ("COc1ccc(-c2csc(-n3nccc3C(F)(F)F)n2)cc1OC", "no (0)"),
    ("O=C(Cc1csc2nc(-c3ccccc3)cn12)Nc1ccc(Cl)cc1", "yes (1)"),
    ("c1cnc(N2CCN(c3ncnc4nc[nH]c34)CC2)nc1", "no (0)"),
    ("CCN1CCN(c2ccc(-c3nc(-c4cccc(F)c4)no3)cn2)CC1", "no (0)"),
]

Assay result, entry CCN(Cc1ccccc1)C(=O)c1cc(-c2ccccc2)n[nH]1 — outcome? no (0)

Short answer needed: outcome of this test for COc1ccc(-c2csc(C3=C(O)CN(CC(C)(C)CN(C)C)C3=N)n2)cc1OC ? yes (1)

Can you look up the reported call for Cc1cccc(CC(=O)N2CCN(c3nc4cccnc4n(Cc4ccccc4)c3=O)CC2)c1 for me? no (0)

Which outcome did this test record for the molecule O=S(=O)(c1cccc(F)c1)N1CC(OCc2cccc(F)c2)C1 ? no (0)

---

Test: anti-Giardia activity of synthetic compounds – Compounds Australia Scaffold Library subset, 24/48 h, primary screen (AID 1794835)
Details: Giardia lamblia BRIS/91/HEPU/1279 trophozoite counts, imaging, at 10 µM
Screen size: about 2,500 compounds; about 45 (2%) were called active. Only a selection was taken, and actives are over-represented in it overall.
experimentalReadout: outcome

# molecule, experimentalReadout, result
measured = [
    ("CCN(Cc1cccs1)C(=O)CN1CCC(n2c(=O)[nH]c3ccccc32)CC1", "outcome", "inactive"),
    ("CN(Cc1ccccc1)C(=O)c1cccc2c1CCN2C(=O)Nc1ccccc1", "outcome", "inactive"),
    ("CNC(=O)N1C[C@@H](CN(C)C)[C@@H](C2CCN(CCC(C)C)CC2)C1", "outcome", "inactive"),
    ("Brc1ccc(-c2nc(-c3ccc4c(c3)ncn4C3CCCC3)no2)o1", "outcome", "inactive"),
    ("CCCC(=O)Nc1ccc2nc(N3CCCC3)cc(C(=O)O)c2c1", "outcome", "inactive"),
]

# batch: return outcome for each of the 4 molecules below
1. Cc1cc(NCc2ccccc2CN2CCCC2)nc(-c2ccncc2)n1
2. Cc1csc(-c2ccc(CNC(=O)c3cncc(Br)c3)cc2)n1
3. COc1ccc(-n2ccn(CC(=O)Nc3cccc(F)c3)c2=O)cc1
4. Cc1ccc(C(=O)N2CCN(S(=O)(=O)N3CCN(C)CC3)CC2)o1

1: inactive; 2: inactive; 3: inactive; 4: inactive

Batch of 5 molecules: report outcome for each.
1. Cc1ncncc1C(=O)N1CCN(CC(O)C(C)(C)C)CC1 (stereo not drawn)
2. CN1CCCN(c2ncnc3cc(Cl)ccc23)CC1
3. Cc1ccc(NC(=O)c2ncoc2-c2ccco2)cc1Cl
4. COc1cc(N2CCn3c(nc4cc(Cl)ccc43)C2)ccc1NC(=O)COc1ccccc1
5. O=c1c2ccsc2ncn1Cc1nc(Cc2ccccc2)no1

["inactive", "inactive", "inactive", "inactive", "inactive"]

Look at each molecule and report its outcome.
1. O=C(NCc1ccccc1)c1cc(-c2ccco2)on1
2. O=C(Cc1ccccc1)NCc1nc(-c2ccc3c(c2)nnn3C2CCCC2)no1
3. COc1ccccc1N1CCN(C(=O)c2cc(C3CC3)[nH]n2)CC1
4. Fc1ccc(C2=Nc3ccc(Cl)cc3NC(c3cccs3)=N2)cc1
5. Cc1c(-c2nc(-c3ccccc3)no2)nnn1-c1cccc(Cl)c1

inactive
inactive
inactive
inactive
inactive
